Data provenance: patent US20190315823A1

# IL1β Production per entry
- Test system: LPS-stimulated human peripheral blood mononuclear cells (IL1-β)
- Assay type: cell-based
- condition.parameters: Table 12; cells stimulated with 10 ng/ml LPS; LPS alone 1313 (HH2 derivatives), 1927 (1018 derivatives), 2455 (1002 and hybrid peptides) pg/ml
Ends that are not written are not given here.
measured.property: IL1β Production (pg/mL)

>>> numeric_readout("1002-I1: single substituted 1002 peptide (IQRWLIVWRIRK-NH2) [Peptide 1002-I1]")
127
>>> numeric_readout("1002-L2: single substituted 1002 peptide (VLRWLIVWRIRK-NH2) [Peptide 1002-L2]")
127
>>> numeric_readout("1002-I2: single substituted 1002 peptide (VIRWLIVWRIRK-NH2) [Peptide 1002-I2]")
127
>>> numeric_readout("1018-Q4: single substituted 1018 peptide (VRLQVAVRIWRR-NH2) [Peptide 1018-Q4]")
458
>>> numeric_readout("1018-A8: single substituted 1018 peptide (VRLIVAVAIWRR-NH2) [Peptide 1018-A8]")
127
>>> numeric_readout("1002-Q4: single substituted 1002 peptide (VQRQLIVWRIRK-NH2) [Peptide 1002-Q4]")
1165
>>> numeric_readout("HH2-I8: single substituted HH2 peptide (VQLRIRVIVIRA-NH2)")
701
>>> numeric_readout("1018-W1: single substituted 1018 peptide (WRLIVAVRIWRR-NH2) [Peptide 1018-W1]")
204
>>> numeric_readout("HH2-Q12: single substituted HH2 peptide (VQLRIRVAVIRQ-NH2)")
965
>>> numeric_readout("1002-R10: single substituted 1002 peptide (VQRWLIVWRRRK-NH2) [Peptide 1002-R10]")
127
>>> numeric_readout("1002-V6: single substituted 1002 peptide (VQRWLVVWRIRK-NH2) [Peptide 1002-V6]")
127
>>> numeric_readout("1018-A3: single substituted 1018 peptide (VRAIVAVRIWRR-NH2) [Peptide 1018-A3]")
748
>>> numeric_readout("HH2-G4: single substituted HH2 peptide (VQLGIRVAVIRA-NH2)")
1582
